molecular target: h-5-HT6 receptor (Homo sapiens, UniProt P50406)
Sequence (P50406 whole entry): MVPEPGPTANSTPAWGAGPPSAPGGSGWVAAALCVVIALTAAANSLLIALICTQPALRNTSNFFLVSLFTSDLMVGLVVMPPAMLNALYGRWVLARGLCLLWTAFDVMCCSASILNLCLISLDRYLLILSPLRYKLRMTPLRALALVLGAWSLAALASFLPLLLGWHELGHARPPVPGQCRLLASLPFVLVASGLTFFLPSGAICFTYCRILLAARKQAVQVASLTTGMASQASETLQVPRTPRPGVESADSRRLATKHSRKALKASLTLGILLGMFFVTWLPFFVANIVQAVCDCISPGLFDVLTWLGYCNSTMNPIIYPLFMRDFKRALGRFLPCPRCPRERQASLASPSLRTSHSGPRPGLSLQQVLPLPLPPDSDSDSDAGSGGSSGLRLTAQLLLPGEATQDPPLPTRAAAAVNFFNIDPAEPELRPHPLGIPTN
Structures can show the parent of a compound that is named as a salt.
# Lookup of reported Ki keyed by entry

O=S(=O)(c1cccc(C(F)(F)F)c1)c1cnc2c(C3CCNCC3)cccc2c1	< 100 nM
O=S(=O)(c1ccccc1)c1cnc2c(C3CCN(Cc4ccccc4)C3)cccc2c1 (stereo not shown)	> 1000 nM
O=S(=O)(c1ccccc1)c1cnc2c(C3CCNCC3)cccc2c1 [Example 2, hydrochloride]	< 100 nM

Ask: Test system h-5-HT6 receptor (Homo sapiens, UniProt P50406); read-out Ki; what value for O=S(=O)(c1ccccc1)c1cnc2c(C3CNC3)cccc2c1 [Example 1, hydrochloride] ?
Result: < 100 nM
